Where these numbers come from: patent US20210070872A1

Catalogue of kon readings, one per entry.
target-of-assay: T1, biotinylated GITR (human, UniProt Q9Y5U5 26-161, limits assumed, biotinylated (sites not given))
T1 construct: also called GITR-bio; Biotin-GITR
T1 sequence: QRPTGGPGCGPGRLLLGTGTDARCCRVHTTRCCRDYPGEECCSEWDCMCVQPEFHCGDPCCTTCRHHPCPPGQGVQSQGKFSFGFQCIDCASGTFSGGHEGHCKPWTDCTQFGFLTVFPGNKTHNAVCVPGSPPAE
test-protocol: BLI (Octet), biotin-GITR on streptavidin tips, antibody supernatant
Number only, in M⁻¹ s⁻¹; omit the unit.

The cases that follow already have their kon on record.
>  <binder>
germline variant antibody 78 (H1917D01 / K1917D01) (antibody, V domains shown, IGHG1/IGKC expression vectors; measured from CHO culture supernatant; also called Antibody ID 78) VH: QVQLVQSGAEVKKPGASVKVSCKGSGYTFTDYAMYWVRQAPGQGLEWIGVIKTYSGGVTYNQKFRDRATMTVDTSISTAYMELSRLRGDDTAVYYCAKSGTVRGFAYWGRGTLVTVSS VL: DIVMTQSPDSLAVSLGERATINCKSSQSLLNSGNQKNYLTWYHQKPGQPPKMLIYWASTRESGVPDRFTGSGSGTDFTLTISSVQAEDVAVYHCQNDYSYPYTFGQGTKLEIK

>  <numeric-value>
325000

$$$$
>  <binder>
germline variant antibody 105 (H1917H07 / K1917H07) (antibody, V domains shown, IGHG1/IGKC expression vectors; measured from CHO culture supernatant) VH: QVQLVQSGAEVKKPGASVKVSCKGSGYTFTEYAMYWVRQAPGQGLEWMGLIRTFSGGVSYNQKFKGRVTMTVDTSISTAYMELSRLRSDDTAVYYCAKSGTVRGFAYWGQGTLVTVSS VL: DIVMTQSPDSLAVSLGERATINCKSSQSLLNSGNQKNYLSWYQQKPGQPPKLLIYWASTRESGVPDRFSGSGSGTDFTLTISSVQAEDVAVYYCQNDYSYPYTFGQGTKLEIK

>  <numeric-value>
351000

$$$$
>  <binder>
germline variant antibody 21 (H1916C03 / K1916C03) (antibody, V domains shown, IGHG1/IGKC expression vectors; measured from CHO culture supernatant; also called Antibody ID 21) VH: QVQLVQSGTEVKKPGASVKVSCKGSGYTFTGYVMHWVRQAPGQGMEWIGVIRTFSGDVSYNQKFRERVTMTVDTSISTAYMELSRLRSDDTAVYYCAKSGTVRGFAYWGQGTLVTVSS VL: DIVMTQSPDSLAVSLGERATINCKSSQSLLNSGNQKNYLTWYHQKPGQPPKLLIYWASTRESGVPDRFSGSGSGTDFTLTISSVQAEDVAVYHCQNDYSYPYTFGQGTKLEIK

>  <numeric-value>
309000

$$$$
>  <binder>
germline variant antibody 91 (H1917F03 / K1917F03) (antibody, V domains shown, IGHG1/IGKC expression vectors; measured from CHO culture supernatant; also called Antibody ID 91) VH: QVQLVQSGTEVKKPGASVKVSCKGSGYTFTEYAMHWVRQAPGQGMEWMGLIRTYSGGVSYNQKFQERATMTVDTSISTAYMELSRLRSDDTAVYYCAKSGTVRGFAYWGQGTLVTVSS VL: DIVMTQSPDSLAVSLGERATINCKSSQSLLNSGNQKNYLSWYQQKPGQPPKLLIYWASTRESGVPDRFSGSGSGTDFTLTISSVQAEDVAVYHCQNEYSFPYTFGQGTKLEIK

>  <numeric-value>
520000

$$$$

API: the following record is the query input.
kon measured on germline variant antibody 79 (H1917D04 / K1917D04) (antibody, V domains shown, IGHG1/IGKC expression vectors; measured from CHO culture supernatant; also called Antibody ID 79) VH: QVQLVQSGTEVKKPGASVKVSCKGSGYTFTEYAMHWVRQAPGQGMEWMGLIRTYSGGVTYNQKFRERVTMTVDKSISTAYMELSRLRSDDTAVYYCAKSGTVRGFAYWGQGTLVTVSS VL: DIVMTQSPDSLAVSLGERATINCKSSQSLLNSGNQKNYLTWYHQKPGQPPKMLIYWASTRESGVPDRFSGSGSGTDFTLTISSLQAEDVAVYYCQNDYSYPYTFGQGTKLEIK = 450000
